B1: HDV Ribozyme (parent)
chain: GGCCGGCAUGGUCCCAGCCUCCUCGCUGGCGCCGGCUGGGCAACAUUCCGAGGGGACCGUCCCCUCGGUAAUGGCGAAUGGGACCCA

# Variants of: B1
# experiment: self-cleavage, relative activity (ratio to wild type); higher = more cleavage; co-transcriptional
property: self-cleavage
// response body must contain only the number

mutation: C15A A43C
meas_value: 0.0554

mutation: G40U G81C
meas_value: 0.149

Sample A70G G74C ; self-cleavage observed: 0.107

Per the records, this variant ( U9C U12G ) has self-cleavage equal to 1.07

# self-cleavage of U12G U37C = 0.692

Field self-cleavage (entry G59C G82U ) reads 0.489

Recorded self-cleavage (variant G39U C49A ): 0.604

Cited source: the RNAGym collection of RNA variant scans (doi:10.7554/elife.80360)
